- TARGET SYSTEM: human polyclonal IgG (Gammanorm) (human)
- RUN DESCRIPTION: SPR (Biacore), retained IgG binding capacity after 96 NaOH cycles against reference Domain 3
METRIC: Sample/ref. ratio

>  <BINDER>
Domain 2 (D2) (protein) AQVPKEEVTIKANLIYADGKTQTAEFKGTFEEAAAEAYRYADALKKDNGEYTVDVADKGYTLNIKFAGKEKTPEEC

>  <Sample/ref. ratio>
0.71

$$$$
>  <BINDER>
D3(N10Q, N45A, N60Q)1 (designed binder) PKEEVTIKAQLIYADGKTQTAEFKGTFEEATAEAYRYADLLAKEAGKYTVDVADKGYTLQIKFAGKEKTPEE

>  <Sample/ref. ratio>
1.9

$$$$

1 = Domain 1 (D1) (protein) AQVSEEEVTIKANLIFANGSTQTAEFKGTFEKATSEAYAYADTLKKDNGEYTVDVADKGYTLNIKFAGKEKTPEEC
2 = Domain 3 (D3) (protein) AQVPKEEVTIKANLIYADGKTQTAEFKGTFEEATAEAYRYADLLAKENGKYTVDVADKGYTLNIKFAGKEKTPEEC
3 = D3(N45A, N60Q)1 (designed binder) PKEEVTIKANLIYADGKTQTAEFKGTFEEATAEAYRYADLLAKEAGKYTVDVADKGYTLQIKFAGKEKTPEE
Query :: Could you please sort these 3 entries by Sample/ref. ratio from high to low? When ranking, write the labels in the order the request describes.
Result :: 3, 2, 1
(3: 1.9, 2: 1, 1: 0.42)
